# SYSTEM: Fes (UniProt P07332)
# Sequence (P07332 whole entry, looked up): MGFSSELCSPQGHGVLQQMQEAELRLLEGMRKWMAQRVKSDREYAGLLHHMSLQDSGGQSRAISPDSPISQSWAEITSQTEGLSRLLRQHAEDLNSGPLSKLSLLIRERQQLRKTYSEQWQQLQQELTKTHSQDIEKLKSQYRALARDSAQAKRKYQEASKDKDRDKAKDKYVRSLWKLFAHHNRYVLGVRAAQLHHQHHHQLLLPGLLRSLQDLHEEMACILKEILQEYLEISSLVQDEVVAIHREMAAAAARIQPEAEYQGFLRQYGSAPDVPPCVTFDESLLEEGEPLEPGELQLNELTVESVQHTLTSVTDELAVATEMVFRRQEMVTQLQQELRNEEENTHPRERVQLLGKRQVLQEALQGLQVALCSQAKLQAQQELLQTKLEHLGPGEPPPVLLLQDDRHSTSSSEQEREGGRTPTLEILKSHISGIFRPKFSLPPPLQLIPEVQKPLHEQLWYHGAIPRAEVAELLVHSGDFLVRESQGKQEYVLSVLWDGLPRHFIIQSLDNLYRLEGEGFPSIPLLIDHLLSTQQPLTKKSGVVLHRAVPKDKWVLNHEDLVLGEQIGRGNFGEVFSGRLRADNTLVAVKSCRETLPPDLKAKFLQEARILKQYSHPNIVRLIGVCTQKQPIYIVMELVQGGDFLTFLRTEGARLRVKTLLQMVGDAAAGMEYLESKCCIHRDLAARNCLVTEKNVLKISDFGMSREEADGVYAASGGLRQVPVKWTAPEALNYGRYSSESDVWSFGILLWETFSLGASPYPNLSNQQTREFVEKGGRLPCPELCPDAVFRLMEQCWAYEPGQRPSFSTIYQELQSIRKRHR
# TEST: phosphorylation enrichment, bacterial display (enrichment ratio); higher = better substrate or ligand; peptides without Tyr show the background;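 further: 11-residue human phosphosite peptides and single-mutation variants displayed on the E. coli surface, counted by deep sequencing, each peptide's frequency after selection divided by its frequency in the unselected input library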;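 further: frequency after pTyr selection over input frequency; kinase dosed for 20-30% of maximal phosphorylation in three min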
Rule: rule met for phosphorylation enrichment not less than 1, rule not met for anything less.

Example results:
# input Is phosphorylation enrichment at least 1? Consider QEIATCRRLLE [KRT14_Y415_Y415C]
# output rule not met

# input Is phosphorylation enrichment at least 1? Consider DFLEKYFKFGS [NNMT_Y24_YF]
# output rule met

# input Is phosphorylation enrichment at least 1? Consider GIPIQYPIISE [NOG_Y222_W217G]
# output rule met

# input Is phosphorylation enrichment at least 1? Consider GSETPYVDRTP [ESS2_Y335]
# output rule not met

---
# input Is phosphorylation enrichment at least 1? Consider SRDPFYEMLTA [CYTH1_Y382_A386T]
# output rule met

# input Is phosphorylation enrichment at least 1? Consider KWRGQYDVAIK [BTK_Y425]
# output rule not met

# input Is phosphorylation enrichment at least 1? Consider LNEAVYTKMMT [G6PD_Y401_P396L]
# output rule met

# input Is phosphorylation enrichment at least 1? Consider QDRDLYPCPGT [RLF_Y671]
# output rule met

# input Is phosphorylation enrichment at least 1? Consider HEEKVYLSRGD [CRACR2A_Y141]
# output rule met

# input Is phosphorylation enrichment at least 1? Consider LFFFSYLLKNH [PTEN_Y180_V175L_YF]
# output rule met

====

# SYSTEM: EPHB1 (UniProt P54762)
# Sequence (P54762 whole entry, looked up): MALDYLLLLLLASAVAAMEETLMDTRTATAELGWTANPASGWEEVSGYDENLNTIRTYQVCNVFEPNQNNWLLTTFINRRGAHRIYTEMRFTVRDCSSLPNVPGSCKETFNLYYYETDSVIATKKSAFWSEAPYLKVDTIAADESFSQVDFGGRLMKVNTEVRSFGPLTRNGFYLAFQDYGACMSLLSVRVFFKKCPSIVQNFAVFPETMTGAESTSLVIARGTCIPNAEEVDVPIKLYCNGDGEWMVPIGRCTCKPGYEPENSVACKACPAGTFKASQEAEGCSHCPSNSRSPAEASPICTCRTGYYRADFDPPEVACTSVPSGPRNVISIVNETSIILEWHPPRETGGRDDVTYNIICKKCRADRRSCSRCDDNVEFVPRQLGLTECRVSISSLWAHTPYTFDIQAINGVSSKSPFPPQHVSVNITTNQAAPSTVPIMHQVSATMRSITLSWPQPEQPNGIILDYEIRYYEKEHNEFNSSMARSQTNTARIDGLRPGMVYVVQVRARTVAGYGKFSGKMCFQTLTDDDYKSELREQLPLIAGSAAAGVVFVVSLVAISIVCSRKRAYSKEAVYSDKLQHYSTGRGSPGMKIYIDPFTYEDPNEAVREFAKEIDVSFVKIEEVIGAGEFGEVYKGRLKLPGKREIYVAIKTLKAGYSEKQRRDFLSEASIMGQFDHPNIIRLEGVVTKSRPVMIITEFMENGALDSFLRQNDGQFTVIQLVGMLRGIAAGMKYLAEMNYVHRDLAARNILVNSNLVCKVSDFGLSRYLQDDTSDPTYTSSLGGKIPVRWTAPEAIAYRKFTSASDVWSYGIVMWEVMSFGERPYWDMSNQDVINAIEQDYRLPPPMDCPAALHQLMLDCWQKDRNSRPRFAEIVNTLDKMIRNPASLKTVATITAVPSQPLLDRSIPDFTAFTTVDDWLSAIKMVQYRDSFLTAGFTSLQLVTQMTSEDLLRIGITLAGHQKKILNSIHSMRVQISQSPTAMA
# TEST: phosphorylation enrichment, bacterial display (enrichment ratio); higher = better substrate or ligand; peptides without Tyr show the background
Rule: true (1) for phosphorylation enrichment not less than 0.5, false (0) for anything less.

Example results:
# input Is phosphorylation enrichment at least 0.5? Consider KPGLKYVTYGN [GALNTL5_Y404]
# output false (0)

# input Is phosphorylation enrichment at least 0.5? Consider LADKPYTFEDF [FXN_Y118_YF]
# output true (1)

---
# input Is phosphorylation enrichment at least 0.5? Consider ADAHHYLCKEV [JAK2_Y382]
# output true (1)

# input Is phosphorylation enrichment at least 0.5? Consider AFLEDYFTSTE [SRC_Y522]
# output true (1)

# input Is phosphorylation enrichment at least 0.5? Consider QFQEKYKQMEQ [HCN4_Y531_V534M_YF]
# output true (1)

# input Is phosphorylation enrichment at least 0.5? Consider CEHRGCLYLAI [TEK_Y897_Y897C]
# output true (1)

# input Is phosphorylation enrichment at least 0.5? Consider SEKISYVFMKR [SSX7_Y48_L43S_YF]
# output true (1)

# input Is phosphorylation enrichment at least 0.5? Consider QYRFIYMAVQH [PTPN11_Y515]
# output true (1)

# input Is phosphorylation enrichment at least 0.5? Consider HYVYYYSYLLK [PTEN_Y178_R173H]
# output true (1)

# input Is phosphorylation enrichment at least 0.5? Consider VECQVYAEDPF [PCCA_Y401_R399Q_YF]
# output true (1)

# input Is phosphorylation enrichment at least 0.5? Consider LNFNEYFRDLN [HPRT1_Y198_D194N_YF]
# output true (1)

# input Is phosphorylation enrichment at least 0.5? Consider TAALWYIYSHT [ENG_Y612]
# output true (1)

====

Would you kindly list phosphorylation enrichment for each of these sequences?
# SYSTEM: FGFR3 (UniProt P22607)
# Sequence (P22607 whole entry, looked up): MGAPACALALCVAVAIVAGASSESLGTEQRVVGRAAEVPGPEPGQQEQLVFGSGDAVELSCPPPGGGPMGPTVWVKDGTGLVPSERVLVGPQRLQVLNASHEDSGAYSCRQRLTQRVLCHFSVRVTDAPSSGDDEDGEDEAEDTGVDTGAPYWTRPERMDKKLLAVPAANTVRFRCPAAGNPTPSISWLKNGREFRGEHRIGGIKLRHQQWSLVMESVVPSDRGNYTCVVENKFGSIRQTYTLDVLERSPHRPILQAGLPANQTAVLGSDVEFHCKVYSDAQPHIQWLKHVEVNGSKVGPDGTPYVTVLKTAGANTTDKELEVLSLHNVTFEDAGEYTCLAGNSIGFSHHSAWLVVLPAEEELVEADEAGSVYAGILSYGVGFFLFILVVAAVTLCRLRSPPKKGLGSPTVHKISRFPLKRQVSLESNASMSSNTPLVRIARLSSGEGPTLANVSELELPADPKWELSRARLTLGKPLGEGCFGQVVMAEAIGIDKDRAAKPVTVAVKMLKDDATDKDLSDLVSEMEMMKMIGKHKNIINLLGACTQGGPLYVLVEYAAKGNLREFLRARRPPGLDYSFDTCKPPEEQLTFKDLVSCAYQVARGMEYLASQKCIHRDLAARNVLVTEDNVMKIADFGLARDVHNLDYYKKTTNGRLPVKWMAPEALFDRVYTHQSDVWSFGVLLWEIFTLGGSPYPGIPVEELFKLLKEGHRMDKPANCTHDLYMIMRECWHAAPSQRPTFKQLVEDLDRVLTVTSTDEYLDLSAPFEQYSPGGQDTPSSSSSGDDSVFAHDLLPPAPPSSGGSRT
# TEST: phosphorylation enrichment, bacterial display (enrichment ratio); higher = better substrate or ligand; peptides without Tyr show the background

Answered examples (4):
phosphorylation enrichment recorded for this sequence, GVRLFYRVMES [RB1_Y454_YF] , is 0.815

phosphorylation enrichment recorded for this sequence, KRAIGYYSATS [FAM120A_Y327] , is 0.389

phosphorylation enrichment recorded for this sequence, ERKQTYGSCRK [LACTB_Y473] , is 0.381

phosphorylation enrichment recorded for this sequence, FRSSLYLLMET [MYO5C_Y633] , is 1.16

For every record below, what is its phosphorylation enrichment?
1. CTTIHYNFMCS [TP53_Y234_N239S_YF]
2. NTSKMYIPHTD [EXPH5_Y782_D777N]
3. ILKPDYQPLAI [HYDIN_Y1072]
4. KATKGYLDDPT [G6PD_Y322_E317K]
5. KLQKYYRKNPD [EHHADH_Y683_Q685K]

# output
0.799
0.523
0.533
0.484
0.332

For every record below, what is its phosphorylation enrichment?
1. GLSDLYVKIHL [SYT2_Y309_P308L]
2. VGEGPYLISDL [ABCC12_Y7]
3. MFNPYYGLFEY [NEDD4L_Y680]
4. TKDTFHKQPMF [GBA_Y451_Y451H]
5. IEENGYNTYAS [FGF10_Y161]
6. FEGRSYSACTT [MMP9_Y241]
7. PAEPRYRARQR [KCNJ11_Y26]
8. HITQVYGFFDE [PPP2CA_Y127_Q122H_YF]

# output
0.804
0.734
7.3
0.391
0.674
0.709
0.599
1.16

For every record below, what is its phosphorylation enrichment?
1. NTDETYCIDNK [TUBB3_Y200_E205K]
2. DENRFYTRAAS [RPS19_Y54_W52R]

# output
1: 0.783; 2: 0.644
